Source listed as ChEMBL document CHEMBL3596113.

Test system: THP-1
Experiment: Cytotoxicity against human THP1 cells assessed as cell growth inhibition after 48 hrs by resazurin dye reduction method
Assay type: cell-based
Settings: Homo sapiens, THP-1, 48 h
property.label: IC50 (µM)
Answers are plain numbers, in µM.

Q: Returns the measured IC50 for the input compound. Input: CC[C@@H](C)[C@@H]1NC(=O)[C@H](C(C)C)NC(=O)[C@@H]2C[C@@H](O)CN2C(=O)[C@H]([C@@H](C)CC)N/C=C(\C(=O)N2CCC[C@H]2C(=O)N[C@H](C(=O)N[C@@H](Cc2ccccc2)C(=O)NCC(N)=O)[C@@H](C)CC)NC(=O)[C@H](CC(C)C)NC(=O)[C@@H]2CCCN2C(=O)[C@@H]2CCCN2C(=O)[C@H](CC(C)C)NC1=O
Ans: 30

###

Assay: Cytotoxicity against human MRC5 cells assessed as cell growth inhibition after 48 hrs by resazurin dye reduction method
Assay type: cell-based
Settings: human, MRC5 cells
Assign IC90 at 48 h to each entry below.
Numbers only, in µM.

- CC[C@@H](C)[C@@H]1NC(=O)[C@H]([C@@H](C)CC)NC(=O)[C@@H]2C[C@@H](O)CN2C(=O)[C@H]([C@H](C)CC)N/C=C(\C(=O)N2CCC[C@H]2C(=O)N[C@H](C(=O)N[C@H](C(=O)O)[C@@H](C)CC)[C@@H](C)CC)NC(=O)[C@H](CC(C)C)NC(=O)[C@@H]2CCCN2C(=O)[C@@H]2CCCN2C(=O)[C@H](CC(C)C)NC1=O: 6

Okay, next one:
Q: Tell me the measured IC90 at 48 h of CC[C@@H](C)[C@@H]1NC(=O)[C@H](C(C)C)NC(=O)[C@@H]2C[C@@H](O)CN2C(=O)[C@H]([C@@H](C)CC)N/C=C(\C(=O)N2CCC[C@H]2C(=O)N[C@H](C(=O)N[C@@H](Cc2ccccc2)C(=O)NCC(N)=O)[C@@H](C)CC)NC(=O)[C@H](CC(C)C)NC(=O)[C@@H]2CCCN2C(=O)[C@@H]2CCCN2C(=O)[C@H](CC(C)C)NC1=O , please.
Ans: 40

###

Tested on: Mycobacterium tuberculosis
Assay: Antitubercular activity against Mycobacterium tuberculosis after 6 days by resazurin dye reduction method
Assay type: functional
Conditions: 144 h, read-out: MIC100
property.label: MIC (µM)
Give bare numbers, in µM.

Example cases with answers are listed next.
• NNC(=O)c1ccncc1 [ISONIAZID] = 1.25
• CC[C@@H](C)[C@@H]1NC(=O)[C@H](C(C)C)NC(=O)[C@@H]2C[C@@H](O)CN2C(=O)[C@H]([C@@H](C)CC)N/C=C(\C(=O)N2CCC[C@H]2C(=O)N[C@H](C(=O)N[C@@H](Cc2ccccc2)C(=O)NCC(N)=O)[C@@H](C)CC)NC(=O)[C@H](CC(C)C)NC(=O)[C@@H]2CCCN2C(=O)[C@@H]2CCCN2C(=O)[C@H](CC(C)C)NC1=O [CALLYAERIN A] = 6
• CC[C@@H](C)[C@@H]1NC(=O)[C@H]([C@@H](C)CC)NC(=O)[C@@H]2C[C@@H](O)CN2C(=O)[C@H]([C@H](C)CC)N/C=C(\C(=O)N2CCC[C@H]2C(=O)N[C@H](C(=O)N[C@H](C(=O)O)[C@@H](C)CC)[C@@H](C)CC)NC(=O)[C@H](CC(C)C)NC(=O)[C@@H]2CCCN2C(=O)[C@@H]2CCCN2C(=O)[C@H](CC(C)C)NC1=O [CALLYAERIN B] = 10

Batch lookup, MIC per entry.
1. CO[C@H]1/C=C/O[C@@]2(C)Oc3c(C)c(O)c4c(O)c(c(/C=N/N5CCN(C)CC5)c(O)c4c3C2=O)NC(=O)/C(C)=C\C=C\[C@H](C)[C@H](O)[C@@H](C)[C@@H](O)[C@@H](C)[C@H](OC(C)=O)[C@@H]1C [RIFAMPIN]
2. CC[C@@H](CO)NCCN[C@@H](CC)CO [ETHAMBUTOL]

Ans:
0.5
5

###

Test system: THP-1
Assay: Cytotoxicity against human THP1 cells assessed as cell growth inhibition after 48 hrs by resazurin dye reduction method
Assay type: cell-based
Conditions: Homo sapiens, THP-1, 48 h
pIC50: −log10 of the molar value.
property.label: pIC50

Record excerpt, results attached:
* CO[C@H]1/C=C/O[C@@]2(C)Oc3c(C)c(O)c4c(O)c(c(/C=N/N5CCN(C)CC5)c(O)c4c3C2=O)NC(=O)/C(C)=C\C=C\[C@H](C)[C@H](O)[C@@H](C)[C@@H](O)[C@@H](C)[C@H](OC(C)=O)[C@@H]1C | < 4.00
* CC(C)C[C@H](NC(=O)[C@@H]1CCCN1C(=O)/C1=C/N[C@@H](CC(C)C)C(=O)N2CCC[C@H]2C(=O)N[C@@H](Cc2ccccc2)C(=O)N[C@@H](Cc2ccccc2)C(=O)N2CCC[C@H]2C(=O)N2CCC[C@H]2C(=O)N[C@@H](C(C)C)C(=O)N1)C(=O)N[C@@H](Cc1ccccc1)C(=O)NCC(N)=O | < 5.00
* CC[C@H](C)[C@H](NC(=O)[C@H](Cc1ccccc1)NC(=O)[C@@H]1CCCN1C(=O)/C1=C/N[C@@H](Cc2ccccc2)C(=O)N2CCC[C@H]2C(=O)N[C@@H](Cc2ccccc2)C(=O)NCC(=O)N[C@@H](CC(C)C)C(=O)N2CCC[C@H]2C(=O)N2CCC[C@H]2C(=O)N[C@@H](Cc2ccccc2)C(=O)N1)C(=O)N[C@@H](CC(=O)O)C(=O)O | < 5.00
* CC[C@H](C)[C@H](NC(=O)[C@H](Cc1ccccc1)NC(=O)[C@H](CC(C)C)NC(=O)[C@@H]1CCCN1C(=O)/C1=C\N[C@@H](C(C)C)C(=O)N2CCC[C@H]2C(=O)N[C@@H](C(C)C)C(=O)N[C@@H](Cc2ccccc2)C(=O)N2CCC[C@H]2C(=O)N1)C(=O)O | < 5.00
* CC[C@H](C)[C@H](NC(=O)[C@@H](NC(=O)[C@@H]1CCCN1C(=O)/C1=C/N[C@@H](CC(C)C)C(=O)N2CCC[C@H]2C(=O)N[C@@H](Cc2ccccc2)C(=O)N[C@@H](Cc2ccccc2)C(=O)N2CCC[C@H]2C(=O)N2CCC[C@H]2C(=O)N[C@@H](C(C)C)C(=O)N1)[C@@H](C)CC)C(=O)NCC(=O)O | < 5.00

Attention now shifts to the item below.
Q: Notebook entry, THP-1 assay: pIC50 of CC[C@H](C)[C@@H]1NC(=O)[C@H](CCC(=O)O)NC(=O)[C@@H]2C[C@@H](O)CN2C(=O)[C@H]([C@@H](C)CC)N/C=C(/C(=O)N2CCC[C@H]2C(=O)N[C@@H](CC(C)C)C(=O)N[C@@H](Cc2ccccc2)C(N)=O)NC(=O)[C@H](CC(C)C)NC(=O)[C@@H]2CCCN2C(=O)[C@@H]2CCCN2C(=O)[C@H](C(C)C)NC1=O = ?
Ans: < 5.00

###

Test system: THP-1
Assay: Cytotoxicity against human THP1 cells assessed as cell growth inhibition after 48 hrs by resazurin dye reduction method
Format: cell-based
Details: Homo sapiens, THP-1, 48 h
property.label: IC50 (µM)
Answers are plain numbers, in µM.

Q: Which measured IC50 value corresponds to CC[C@@H](C)[C@@H]1NC(=O)[C@H]([C@@H](C)CC)NC(=O)[C@@H]2C[C@@H](O)CN2C(=O)[C@H]([C@H](C)CC)N/C=C(\C(=O)N2CCC[C@H]2C(=O)N[C@H](C(=O)N[C@H](C(=O)O)[C@@H](C)CC)[C@@H](C)CC)NC(=O)[C@H](CC(C)C)NC(=O)[C@@H]2CCCN2C(=O)[C@@H]2CCCN2C(=O)[C@H](CC(C)C)NC1=O [CALLYAERIN B] ?
Ans: 5
